target: GRK6, recombinant full-length GST-tagged human protein (Homo sapiens); construct: GRK6, recombinant full-length GST-tagged human protein; GST; experiment: GRK6 IC50 determination (8-point concentration-response); format: biochemical; settings: 20 nM GRK6, 12 μM ATP (Km), 1 μM Peptide 216, 7 h incubation
Sequence (P43250 whole entry): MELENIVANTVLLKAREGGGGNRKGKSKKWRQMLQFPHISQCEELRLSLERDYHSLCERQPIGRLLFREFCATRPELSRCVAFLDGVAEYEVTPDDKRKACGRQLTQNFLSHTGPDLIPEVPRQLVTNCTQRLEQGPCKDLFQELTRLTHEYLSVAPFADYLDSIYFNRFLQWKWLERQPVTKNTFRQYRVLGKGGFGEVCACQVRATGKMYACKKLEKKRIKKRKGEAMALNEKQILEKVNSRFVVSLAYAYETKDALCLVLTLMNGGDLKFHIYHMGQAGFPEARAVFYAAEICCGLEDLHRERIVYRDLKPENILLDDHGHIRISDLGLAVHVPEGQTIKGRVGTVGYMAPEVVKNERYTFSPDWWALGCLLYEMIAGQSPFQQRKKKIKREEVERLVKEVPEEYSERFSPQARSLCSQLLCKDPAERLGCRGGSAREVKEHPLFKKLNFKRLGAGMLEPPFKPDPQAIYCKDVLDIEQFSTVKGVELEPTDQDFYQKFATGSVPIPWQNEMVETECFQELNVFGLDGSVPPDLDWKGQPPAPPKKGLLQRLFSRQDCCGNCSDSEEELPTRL
endpoint: IC50 (µM)
Give your result in µM as a bare value.

query: Please list IC50 recorded for the compound O=C(O)CSc1nnc(-c2cccc(C(F)(F)F)c2)[nH]1 [Compound 101]
result: 3.02

query: Please list IC50 recorded for the compound O=C(O)CSc1nnc(-c2ccc(-n3ccnc3)cc2)[nH]1 [Compound 132]
result: 7.36

query: Please list IC50 recorded for the compound CSc1ccccc1-c1nnc(SCC(=O)O)[nH]1 [Compound 188]
result: 74.1

query: Please list IC50 recorded for the compound Cc1ccc(O)c(-c2nnc(SCC(=O)O)[nH]2)c1 [Compound 99]
result: 2.71

query: Please list IC50 recorded for the compound COc1cc(F)c(-c2nnc(SCC(=O)O)[nH]2)cc1OC [Compound 172]
result: 23.7

query: Please list IC50 recorded for the compound COc1ccc(-c2nnc(SCC(=O)O)[nH]2)c(O)c1 [Compound 169]
result: 20.9

query: Please list IC50 recorded for the compound CS(=O)(=O)c1cccc(-c2nnc(SCC(=O)O)[nH]2)c1 [Compound 124]
result: 6.36

query: Please list IC50 recorded for the compound O=C(O)CSc1nnc(-c2ccc(O)c([N+](=O)[O-])c2)[nH]1 [Compound 128]
result: 6.8

query: Please list IC50 recorded for the compound CN(C)c1ccc(-c2nnc(SCC(=O)O)[nH]2)c([N+](=O)[O-])c1 [Compound 183]
result: 40

query: Please list IC50 recorded for the compound O=C(O)CSc1nnc(-c2ccc(N3CCCCC3)cc2F)[nH]1 [Compound 180]
result: 35.7

query: Please list IC50 recorded for the compound COc1ccc(Br)cc1-c1nnc(SCC(=O)O)[nH]1 [Compound 192]
result: 87

query: Please list IC50 recorded for the compound COc1cc(F)cc(-c2nnc(SCC(=O)O)[nH]2)c1 [Compound 98]
result: 2.61

query: Please list IC50 recorded for the compound O=C(O)CSc1nnc(-c2ccc(O)c(O)c2)[nH]1 [Compound 119]
result: 5.02

query: Please list IC50 recorded for the compound O=C(O)CSc1nnc(-c2ccc(F)c(F)c2)[nH]1 [Compound 106]
result: 3.36

query: Please list IC50 recorded for the compound COc1ccc2cc(-c3cccc(-c4nnc(SCC(=O)O)[nH]4)c3)ccc2c1 [Compound 51]
result: 0.51

query: Please list IC50 recorded for the compound O=C(O)CSc1nnc(-c2ccc(O)cc2O)[nH]1 [Compound 147]
result: 11.6

query: Please list IC50 recorded for the compound O=C(O)CSc1nnc(-c2cc(C(=O)O)ccc2F)[nH]1 [Compound 191]
result: 81.7

query: Please list IC50 recorded for the compound O=C(O)CSc1nnc(-c2cc(Br)ccc2O)[nH]1 [Compound 89]
result: 1.05

query: Please list IC50 recorded for the compound CN(CCC#N)c1ccc(-c2nnc(SCC(=O)O)[nH]2)cc1 [Compound 179]
result: 35.3

query: Please list IC50 recorded for the compound N#Cc1cccc(-c2nnc(SCC(=O)O)[nH]2)c1 [Compound 96]
result: 2.31

query: Please list IC50 recorded for the compound COC(=O)c1ccc(-c2nnc(SCC(=O)O)[nH]2)cc1 [Compound 142]
result: 9.56

query: Please list IC50 recorded for the compound COc1cc(-c2nnc(SCC(=O)O)[nH]2)ccc1OC(C)=O [Compound 144]
result: 9.9

query: Please list IC50 recorded for the compound COc1cc(-c2nnc(SCC(=O)O)[nH]2)cc(OC)c1O [Compound 140]
result: 8.83

query: Please list IC50 recorded for the compound O=C(O)CSc1nnc(-c2cccc(F)c2F)[nH]1 [Compound 145]
result: 10.7
